Test: S6 kinase pathway phospho-S6 level changes – cell-based, A549, cytoblot, luminescence, serum-stimulated, primary screen (AID 1158);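 also: serum-stimulated A549 lung adenocarcinoma cells; signal is phosphorylated S6 detected by cytoblot immunostaining with HRP secondary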
Details: 5 h, higher = more signal
Listed here: items and their measured z-score.

{"columns": ["MOLECULE", "z-score"],
 "data": [
  ["C[C@]12C(=O)N(CCCO)[C@@H]3C(=O)N(c4ccc(Cl)cc4)CC=CC31O[C@@H]1/C=C\\CCCOC(=O)C12 (stereo not given in full)", -0.332]
]}

Field request: z-score | item: O=C(C=C(CC(O)c1cccc(Cl)c1)OCCF)OCCF (stereo not given)
0.785

Field request: z-score | item: COc1ccccc1CN1C(=O)c2ccccc2[C@@H](C(=O)NCC(C)C)[C@@H]1c1ccc(CO)cc1
-0.195

Field request: z-score | item: C=C[C@H](C)[C@H](OC(=O)Nc1ccc(SC)cc1)c1ccc(O)c2ccccc12
0.451

====

Assay: optical density shifts of acrAB sulA E. coli – strain DRC41, OD650, 48 h, E. coli filamentation inducer project, primary screen (AID 1152);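 also: E. coli MC1000 strain DRC41 lacking acrAB efflux pump and sulA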
Conditions: higher = more signal, called active from +8 up or from −8 down
Parameter threshold = 0.2. Response is class 1 when z-score meets or exceeds it, else class 0.

// below: answered compounds
{"columns": ["COMPOUND", "ASSIGNED_CATEGORY"],
 "data": [
  ["CN(C)C(=O)[C@@]1(CCC(=O)OC(C)(C)C)COC(c2ccc(OCCCO)cc2)=N1", "class 1"],
  ["CN(C)C(=O)[C@@]1(Cc2ccccc2N=[N+]=[N-])N=C(c2ccc(OCCCO)cc2)O[C@H]1c1ccccc1N=[N+]=[N-]", "class 0"],
  ["COc1ccccc1CN1C(=O)c2ccccc2[C@@]2(Cc3ccccc3N(C3CC3)C2=O)[C@@H]1c1ccc(CO)cc1", "class 0"],
  ["COCCOC(=O)N1C(=O)[C@@]2(c3cc(C#CC4(O)CCCCCC4)ccc31)[C@H](C(=O)N1CCN(c3ncccn3)CC1)[C@H]1C(=O)O[C@H](c3ccccc3)[C@H](c3ccccc3)N1[C@@H]2c1ccc(O)cc1", "class 1"],
  ["C[C@H]1ON(c2ccccc2)[C@@H](c2ccccc2)[C@@H]1C(=O)N1C(=O)OC[C@@H]1c1ccccc1", "class 1"],
  ["Cc1ccc(S[C@]2(C(=O)NCCN3CCOCC3)CC(=O)N(C3Cc4ccccc4C3)[C@@H]2c2ccc(CO)cc2)cc1", "class 1"],
  ["COC(=O)[C@@]1(Cc2ccccc2)[C@H]2c3cc(C(=O)N4CCCC4)n(Cc4ccc(OC(F)(F)F)cc4)c3C[C@H]2CN1C(=O)c1ccccc1", "class 0"],
  ["O=C1N(CCS(=O)(=O)c2ccccc2)c2ccccc2[C@H]2OC(c3ccc(OCCCO)cc3)=N[C@@]12CCS(=O)(=O)c1ccccc1", "class 1"]
]}

State whether the measured z-score reaches 0.2, counting equality as reaching it, for COc1ccc([Si](C)(C)[C@H]2[C@H](CCn3cc(CCO)nn3)O[C@@]3(C(=O)N(Cc4cccc(N5C(=O)c6cccc7cccc5c67)c4)c4ccccc43)[C@@H]2C)cc1
class 1

State whether the measured z-score reaches 0.2, counting equality as reaching it, for C[N+](C)(C)CCCC[C@@H]1NC(=O)[C@@H]2C[C@H](C(=O)O)[C@H](c3cccc(OCCO)c3)N2C1=O
class 1

State whether the measured z-score reaches 0.2, counting equality as reaching it, for C=CCOC(=O)[C@@H]1[C@H]2C(=O)O[C@H](c3ccccc3)[C@H](c3ccccc3)N2[C@H](c2ccc(OCCOC(=O)[C@@H]3C[C@@H]4C(=O)N[C@@H](CCCCNC(C)=O)C(=O)N4[C@@H]3c3ccc(O)cc3)cc2)[C@@]12C(=O)Nc1ccc(I)cc12
class 0

State whether the measured z-score reaches 0.2, counting equality as reaching it, for OCCCC1=CC(c2cccs2)N(Cc2cccc(OC(F)(F)F)c2)CC1 (stereo not drawn)
class 0

State whether the measured z-score reaches 0.2, counting equality as reaching it, for O=C1O[C@@H](c2ccccc2)[C@@H](c2ccccc2)N2[C@@H](c3ccc(O)cc3)[C@]3(C(=O)Nc4ccc(C#CC5(O)CCCCCC5)cc43)[C@@H](C(=O)N3CCN(c4ncccn4)CC3)[C@H]12
class 1

====

Assay: optical density shifts of acrAB sulA E. coli – strain DRC41, OD650, 48 h, E. coli filamentation inducer project, primary screen (AID 1152);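 also: E. coli MC1000 strain DRC41 lacking acrAB efflux pump and sulA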
Conditions: higher = more signal, called active from +8 up or from −8 down
Listed here: items and their measured z-score.
Field format: numeric only.

Here is how some molecules turned out for z-score.
{"columns": ["MOLECULE", "z-score"],
 "data": [
  ["CC(C)C(CO)N1C(=O)[C@@H]2[C@H]3C(=O)OCC=C[C@H]3OC23C=CCN(CCN2CCOCC2)C(=O)[C@@H]13 (stereo partly drawn)", -0.706],
  ["NC(=O)NCC#Cc1ccc2c(c1)[C@]1(C(=O)N2)[C@H](c2ccc(O)cc2)N2[C@H](c3ccccc3)[C@H](c3ccccc3)OC(=O)[C@H]2[C@@H]1C(=O)NC[C@H](O)c1ccccc1", 0.578],
  ["COCC(=C=CC[C@@H](O)c1ccccc1OCCO)C[C@@H](O)c1ccccn1", -0.197],
  ["O=C1N(Cc2ccccc2)c2ccccc2[C@H]2OC(c3ccc(OCCCO)cc3)=N[C@@]12CCS(=O)(=O)c1ccccc1", -0.751]
]}

Field request: z-score | item: COCCOC(=O)N1C(=O)[C@@]2(c3cc(C#Cc4ccc(OC)cc4)ccc31)[C@H](C(=O)N1CCc3cc(OC)c(OC)cc3C1)[C@H]1C(=O)O[C@H](c3ccccc3)[C@H](c3ccccc3)N1[C@@H]2c1ccc(O)cc1
0.515

Field request: z-score | item: NC(=O)[C@@H]1[C@H]2C(=O)O[C@H](c3ccccc3)[C@H](c3ccccc3)N2[C@H](c2ccccc2OCCO)[C@@]12C(=O)Nc1ccc(C#CCCO)cc12
1.41

Field request: z-score | item: NC(=O)NCC#Cc1ccc2c(c1)[C@]1(C(=O)N2)[C@H](c2ccc(O)cc2)N2[C@H](c3ccccc3)[C@H](c3ccccc3)OC(=O)[C@H]2[C@@H]1C(N)=O
0.373

====

Biological target: Fibroblast growth factor 2 (Homo sapiens)
Test: basic fibroblast growth factor binding to printed compounds – biochemical, small-molecule microarray, 635/667 nm fluorescence, primary screen (AID 1133)
Settings: FGF2, fluorescence 635/667, higher = more signal
Listed here: items and their measured composite z-score.
Field format: numeric only.

{"columns": ["COMPOUND", "RECORDED_VALUE"],
 "data": [
  ["[N-]=[N+]=NCc1ccccc1[C@H]1OC(c2ccc(OCCCO)cc2)=N[C@@]1(Cc1ccccc1N=[N+]=[N-])C(=O)N1CCCCC1", 1.56]
]}

Consider the record given below.
State its composite z-score on Fibroblast growth factor 2 (Homo sapiens): COCCCNC(=O)[C@@]1(Cc2ccccc2I)c2ccccc2C(=O)N(Cc2ccccc2Cl)[C@H]1c1ccc(CO)cc1
-0.125

====

Assay: probe aXIP binding to arrayed compounds – biochemical, NeuroSMM set, 635/667 nm fluorescence, primary screen (AID 1119);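 also: probe is the protein aXip251-270 applied at 1 µg/mL to compound-printed slides; binding of probe to printed compounds measured as 667 nm fluorescence plus signal to noise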
Settings: small-molecule microarray, higher = more signal, called active from +8 up or from −8 down
Calls of active or inactive are those of the source.
Listed here: items and their measured composite Z-score.

{"columns": ["COMPOUND", "composite Z-score"],
 "data": [
  ["[N-]=[N+]=Nc1ccccc1[C@H]1OC(c2ccc(OCCCO)cc2)=N[C@@]1(Cc1ccccc1)C(=O)NCc1ccccc1", "1.76 (inactive)"],
  ["CC1CC/C=C\\[C@H]2OC34C=CCN(Cc5ccccc5)C(=O)[C@H]3N(CCO)C(=O)[C@@H]4C2C(=O)O1 (some centres undefined)", "0.461 (inactive)"],
  ["NC(=O)[C@@H]1[C@H]2C(=O)O[C@H](c3ccccc3)[C@H](c3ccccc3)N2[C@H](c2ccccc2OCCO)[C@@]12C(=O)Nc1ccc(C#CCCO)cc12", "-0.309 (inactive)"],
  ["COCCOC(=O)N1C(=O)[C@@]2(c3cc(C#CC4(O)CCCCCC4)ccc31)[C@H](C(=O)NC[C@H](O)c1ccccc1)[C@H]1C(=O)O[C@H](c3ccccc3)[C@H](c3ccccc3)N1[C@@H]2c1ccc(OCCO)cc1", "0.244 (inactive)"]
]}

Field request: composite Z-score | item: O=[N+]([O-])c1ccc(C[n+]2ccc(-c3ccc(CO)cc3)cc2)o1
0.289 (inactive)

Field request: composite Z-score | item: COCCOC(=O)N1C(=O)[C@@]2(c3cc(C#CCC(C(=O)OC)C(=O)OC)ccc31)[C@H](c1ccc(OCCO)cc1)N1[C@H](c3ccccc3)[C@H](c3ccccc3)OC(=O)[C@H]1[C@@H]2C(N)=O
0.674 (inactive)

Field request: composite Z-score | item: O=C1NC(=O)C2C1C=CC(C(O)c1ccc3c(c1)OCO3)N2Nc1ccc(Cl)cc1Cl (centres undefined)
0.549 (inactive)

Field request: composite Z-score | item: CC(C)C[C@@H]1NC(=O)[C@@H]2C[C@H](C(=O)NCc3ccc(F)cc3)[C@H](c3ccc(O)cc3)N2C1=O
0.63 (inactive)

Field request: composite Z-score | item: COc1cccc(C)c1NC(=O)O[C@H]1[C@H](OC(=O)Nc2ccccc2)[C@H](OC(=O)Nc2ccccc2)[C@@H](OC)O[C@@H]1CO
-0.922 (inactive)

Field request: composite Z-score | item: CC(C)C[C@H]1NC(=O)[C@H](C)NC(=O)[C@@]23C(=O)N[C@@H](Cc4ccccc4)C2[C@H](C)[C@@]2(C)O[C@H]2C3/C=C/C/C=C\CNC1=O (some centres undefined)
-0.155 (inactive)

Field request: composite Z-score | item: O=C1O[C@H](c2ccccc2)[C@H](c2ccccc2)N2[C@H]1[C@@H](C(=O)N1CCCCCCC1)[C@]1(C(=O)Nc3ccccc31)[C@H]2c1ccc(O)cc1
8.41 (active)
